# test.system: NR1/NR2B (NR1100) (Rattus norvegicus, UniProt P35439+Q00960)
# Sequence (Q00960 27-1482, other chains not shown): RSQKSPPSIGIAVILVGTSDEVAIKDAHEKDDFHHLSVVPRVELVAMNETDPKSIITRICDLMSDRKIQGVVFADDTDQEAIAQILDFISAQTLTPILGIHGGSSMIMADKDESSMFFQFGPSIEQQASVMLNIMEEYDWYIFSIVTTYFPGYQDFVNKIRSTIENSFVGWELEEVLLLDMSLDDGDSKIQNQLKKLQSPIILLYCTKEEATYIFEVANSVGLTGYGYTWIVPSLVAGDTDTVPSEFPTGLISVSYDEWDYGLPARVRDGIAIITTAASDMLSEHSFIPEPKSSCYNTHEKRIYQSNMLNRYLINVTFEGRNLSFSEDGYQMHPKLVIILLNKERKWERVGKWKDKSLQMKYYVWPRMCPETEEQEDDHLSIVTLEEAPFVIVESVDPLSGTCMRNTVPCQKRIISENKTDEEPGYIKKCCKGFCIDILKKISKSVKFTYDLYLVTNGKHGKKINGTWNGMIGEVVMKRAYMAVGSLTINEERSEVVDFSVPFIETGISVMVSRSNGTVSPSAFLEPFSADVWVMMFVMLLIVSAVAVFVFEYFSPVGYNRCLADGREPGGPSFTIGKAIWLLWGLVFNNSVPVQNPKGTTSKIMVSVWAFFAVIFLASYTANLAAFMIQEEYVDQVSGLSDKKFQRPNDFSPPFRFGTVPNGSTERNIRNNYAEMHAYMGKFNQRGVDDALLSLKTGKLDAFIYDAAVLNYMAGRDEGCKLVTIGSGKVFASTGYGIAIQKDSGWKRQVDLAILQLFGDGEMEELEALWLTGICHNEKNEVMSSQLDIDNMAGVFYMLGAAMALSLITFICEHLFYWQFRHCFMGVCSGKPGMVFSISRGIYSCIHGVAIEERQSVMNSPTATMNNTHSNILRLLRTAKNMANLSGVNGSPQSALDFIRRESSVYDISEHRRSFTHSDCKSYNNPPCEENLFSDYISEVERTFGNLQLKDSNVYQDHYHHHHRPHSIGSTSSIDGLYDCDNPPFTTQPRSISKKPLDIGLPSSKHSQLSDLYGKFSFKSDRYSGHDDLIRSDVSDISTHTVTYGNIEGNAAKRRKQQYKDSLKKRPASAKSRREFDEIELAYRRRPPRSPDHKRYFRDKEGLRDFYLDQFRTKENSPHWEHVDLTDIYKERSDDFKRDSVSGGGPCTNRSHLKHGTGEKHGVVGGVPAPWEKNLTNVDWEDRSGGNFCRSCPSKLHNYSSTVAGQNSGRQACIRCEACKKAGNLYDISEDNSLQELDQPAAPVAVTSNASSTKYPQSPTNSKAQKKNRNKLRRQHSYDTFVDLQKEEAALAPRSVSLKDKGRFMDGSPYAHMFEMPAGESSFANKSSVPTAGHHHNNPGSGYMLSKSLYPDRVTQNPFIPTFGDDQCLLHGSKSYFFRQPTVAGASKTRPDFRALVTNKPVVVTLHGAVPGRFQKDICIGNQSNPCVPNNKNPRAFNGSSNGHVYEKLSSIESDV
# conditions.used: read-out: agonist EC50, +100 μM PS
observed.property: pEC50
Give bare numbers, as −log10 of the molar value.

Per the record, CN[C@H](CC(=O)O)C(=O)O [NMDA, N-methyl-D-aspartate] has pEC50 of 4.92

----------
# test.system: NR1/NR2C (NR1100) (Rattus norvegicus, UniProt P35439+Q00961)
# Sequence (Q00961 20-1237, other chains not shown): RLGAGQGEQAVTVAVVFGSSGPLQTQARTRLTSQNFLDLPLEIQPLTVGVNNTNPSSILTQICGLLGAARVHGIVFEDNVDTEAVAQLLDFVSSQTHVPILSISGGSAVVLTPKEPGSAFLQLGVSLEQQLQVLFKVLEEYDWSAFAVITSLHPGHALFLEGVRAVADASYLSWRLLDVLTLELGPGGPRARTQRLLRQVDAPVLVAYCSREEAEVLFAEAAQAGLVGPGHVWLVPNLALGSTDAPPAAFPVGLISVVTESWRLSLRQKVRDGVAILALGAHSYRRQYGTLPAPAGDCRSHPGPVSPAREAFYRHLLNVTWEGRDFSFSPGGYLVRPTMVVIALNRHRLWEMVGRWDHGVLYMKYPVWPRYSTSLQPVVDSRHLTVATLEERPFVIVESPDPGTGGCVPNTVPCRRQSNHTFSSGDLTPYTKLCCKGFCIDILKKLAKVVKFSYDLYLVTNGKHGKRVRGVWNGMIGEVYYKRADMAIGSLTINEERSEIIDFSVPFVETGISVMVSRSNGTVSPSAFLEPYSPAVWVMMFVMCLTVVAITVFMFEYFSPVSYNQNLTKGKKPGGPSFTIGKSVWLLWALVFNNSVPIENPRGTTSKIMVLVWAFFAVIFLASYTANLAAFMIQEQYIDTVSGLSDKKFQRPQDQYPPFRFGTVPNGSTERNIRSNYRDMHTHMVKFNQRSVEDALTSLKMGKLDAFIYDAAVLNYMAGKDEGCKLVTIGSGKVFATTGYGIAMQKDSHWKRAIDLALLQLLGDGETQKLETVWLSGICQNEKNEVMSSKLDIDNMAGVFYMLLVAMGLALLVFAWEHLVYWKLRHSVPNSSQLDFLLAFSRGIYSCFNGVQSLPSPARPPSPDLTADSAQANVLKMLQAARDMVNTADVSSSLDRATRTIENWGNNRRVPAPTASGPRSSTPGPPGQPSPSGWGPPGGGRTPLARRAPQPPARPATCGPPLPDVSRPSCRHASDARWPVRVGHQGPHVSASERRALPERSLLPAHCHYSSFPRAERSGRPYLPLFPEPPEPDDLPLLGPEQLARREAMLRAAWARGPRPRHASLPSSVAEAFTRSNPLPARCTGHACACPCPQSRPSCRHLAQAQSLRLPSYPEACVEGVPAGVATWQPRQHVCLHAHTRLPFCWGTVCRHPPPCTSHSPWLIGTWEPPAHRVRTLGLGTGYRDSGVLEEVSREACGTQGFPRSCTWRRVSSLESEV
# assay.method.text: cell-based
Structures can show the parent of a compound that is named as a salt.
observed.property: EC50

Per the record, CC(=O)[C@H]1CC[C@H]2[C@@H]3CC[C@@H]4C[C@H](OS(=O)(=O)O)CC[C@]4(C)[C@H]3CC[C@]12C [3α5βS, 3α5β-pregnanolone sulfate] has EC50 of 12 µM

----------
# test.system: NR1011/NR2A (Rattus norvegicus, UniProt P35439+Q00959)
# Sequence (Q00959 23-1464, other chains not shown): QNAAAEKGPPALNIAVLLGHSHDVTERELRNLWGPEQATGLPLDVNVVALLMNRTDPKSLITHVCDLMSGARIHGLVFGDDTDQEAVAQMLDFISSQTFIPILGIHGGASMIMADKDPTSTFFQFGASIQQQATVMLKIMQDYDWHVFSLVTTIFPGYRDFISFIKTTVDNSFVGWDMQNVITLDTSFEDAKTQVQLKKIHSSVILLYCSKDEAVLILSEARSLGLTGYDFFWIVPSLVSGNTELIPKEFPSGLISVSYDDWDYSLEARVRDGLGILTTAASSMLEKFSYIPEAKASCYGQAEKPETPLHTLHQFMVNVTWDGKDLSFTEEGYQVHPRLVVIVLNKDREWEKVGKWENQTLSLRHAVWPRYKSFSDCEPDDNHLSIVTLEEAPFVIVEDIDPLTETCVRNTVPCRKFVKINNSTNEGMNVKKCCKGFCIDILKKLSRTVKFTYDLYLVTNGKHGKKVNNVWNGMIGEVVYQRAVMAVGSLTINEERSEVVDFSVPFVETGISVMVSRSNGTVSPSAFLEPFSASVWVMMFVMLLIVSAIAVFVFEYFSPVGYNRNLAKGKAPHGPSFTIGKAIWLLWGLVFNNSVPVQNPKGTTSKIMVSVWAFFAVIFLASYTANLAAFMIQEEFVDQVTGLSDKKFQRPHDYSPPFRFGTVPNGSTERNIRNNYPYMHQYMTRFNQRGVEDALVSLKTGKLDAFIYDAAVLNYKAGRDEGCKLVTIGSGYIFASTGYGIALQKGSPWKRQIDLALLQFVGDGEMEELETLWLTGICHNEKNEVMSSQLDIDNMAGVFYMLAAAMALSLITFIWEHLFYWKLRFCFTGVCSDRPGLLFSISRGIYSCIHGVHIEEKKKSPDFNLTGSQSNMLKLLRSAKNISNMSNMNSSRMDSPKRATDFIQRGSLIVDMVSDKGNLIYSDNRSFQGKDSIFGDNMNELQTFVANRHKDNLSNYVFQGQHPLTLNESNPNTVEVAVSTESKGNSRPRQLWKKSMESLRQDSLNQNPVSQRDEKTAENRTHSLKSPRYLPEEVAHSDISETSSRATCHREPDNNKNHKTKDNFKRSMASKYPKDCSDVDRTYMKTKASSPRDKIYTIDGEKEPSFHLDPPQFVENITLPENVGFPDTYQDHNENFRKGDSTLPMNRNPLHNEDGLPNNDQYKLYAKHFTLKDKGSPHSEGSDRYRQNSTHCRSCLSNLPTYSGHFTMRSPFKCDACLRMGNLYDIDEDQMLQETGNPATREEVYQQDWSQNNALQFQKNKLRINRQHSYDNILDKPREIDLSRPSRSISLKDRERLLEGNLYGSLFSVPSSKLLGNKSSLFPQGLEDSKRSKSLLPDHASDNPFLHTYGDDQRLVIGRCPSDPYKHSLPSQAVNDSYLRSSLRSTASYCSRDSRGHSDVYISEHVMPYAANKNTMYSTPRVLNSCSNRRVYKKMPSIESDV
# assay.method.text: NMDA-induced currents of NR1 splice variants, Xenopus oocytes, Example 4
# Assay type: cell-based
# Set-up: expressed in transfected cells; host or cells: Xenopus oocytes injected with NR1011 and NR2A mRNA
# conditions.used: read-out: NMDA EC50; NR1011/2A; pH 8.5; control
observed.property: EC50 (µM)
Give bare numbers, in µM.

Per the record, CN[C@H](CC(=O)O)C(=O)O [NMDA, N-methyl-D-aspartate] has EC50 of 94

----------
# test.system: NR1111/NR2A (Rattus norvegicus, UniProt P35439+Q00959)
# assay.method.text: NMDA-induced currents of NR1 splice variants, Xenopus oocytes, Example 4
# Type: cell-based
# Design: expressed in transfected cells; host or cells: Xenopus oocytes injected with NR1111 and NR2A mRNA
# conditions.used: read-out: NMDA EC50; NR1111/2A; pH 7.5; control; 10 μM glycine
observed.property: pEC50
Give bare numbers, as −log10 of the molar value.

Per the record, CN[C@H](CC(=O)O)C(=O)O [NMDA, N-methyl-D-aspartate] has pEC50 of 3.99

----------
# test.system: NR1111/NR2A (Rattus norvegicus, UniProt P35439+Q00959)
# assay.method.text: NMDA-induced currents of NR1 splice variants, Xenopus oocytes, Example 4
# Assay type: cell-based
# Design: expressed in transfected cells; host or cells: Xenopus oocytes injected with NR1111 and NR2A mRNA
# conditions.used: read-out: NMDA EC50; NR1111/2A; pH 8.5; control
observed.property: EC50 (µM)
Answers are plain numbers, in µM.

Per the record, CN[C@H](CC(=O)O)C(=O)O [NMDA, N-methyl-D-aspartate] has EC50 of 110

----------
# test.system: NR1111/NR2A (Rattus norvegicus, UniProt P35439+Q00959)
# assay.method.text: NMDA-induced currents of NR1 splice variants, Xenopus oocytes, Example 4
# Type: cell-based
# Design: expressed in transfected cells; host or cells: Xenopus oocytes injected with NR1111 and NR2A mRNA
# conditions.used: read-out: NMDA EC50; NR1111/2A; pH 7.5; +100 μM 3α5βS
observed.property: EC50 (µM)
Answers are plain numbers, in µM.

Per the record, CN[C@H](CC(=O)O)C(=O)O [NMDA, N-methyl-D-aspartate] has EC50 of 158

----------
# test.system: NR1/NR2A (NR1100) (Rattus norvegicus, UniProt P35439+Q00959)
# assay.method.text: cell-based
Structures can show the parent of a compound that is named as a salt.
observed.property: EC50 (µM)
Numbers only, in µM.

Per the record, CC(=O)[C@H]1CC[C@H]2[C@@H]3CC[C@@H]4C[C@H](OS(=O)(=O)O)CC[C@]4(C)[C@H]3CC[C@]12C [3α5βS, 3α5β-pregnanolone sulfate] has EC50 of 62
